Source listed as PubChem BioAssay (Tox21).

- experiment-description: qHTS assay to identify small molecule agonists of H2AX - cell viability counter screen (AID 1224847); also: nearly all actives have a fitted effect of over 30% in size
- settings: CHO-K1 viability, CellTiter-Glo luminescence, 3 h; series mostly up to 154 µM
Records with an inconclusive call do not appear. Calls of active or inactive are those of the source. Calls follow the shape of the full dose curve.
Just give me one of these, please: active, inactive

Look over these answered cases.
CN(C)CCc1c[nH]c2ccc(O)cc12: inactive
CCN(CC)C(=S)[S-].CCN(CC)C(=S)[S-].[Zn+2]: active
Cc1cc(Cl)ccc1O[C@H](C)C(=O)O: inactive

Prompt: Lab log entry: C[C@]12Cc3nonc3C[C@@H]1CC[C@@H]1[C@@H]2CC[C@@]2(C)[C@H]1CC[C@]2(C)O — outcome as called in the assay?
Response: active

Prompt: Lab log entry: O=C(CBr)c1ccc(O)cc1 — outcome as called in the assay?
Response: inactive
